# Lookup of reported MRT last keyed by entry
# protocol_notes: Pharmacokinetic study in rats after oral administration of cinobufacini capsule (UPLC-MS/MS of plasma)
# Type: in vivo, rat
# experimental_context: male, Sprague-Dawley, in vivo; rat plasma, oral cinobufacini capsule 1.8 g/kg (medium), mean ± SD, n = 6; read-out: MRT0-t
endpoint_name: MRT last (h)

# structure_smiles, unit_label, meas_value
records = [
    ("C[C@]12CC[C@H](O)C[C@@]1(O)CC[C@@H]1[C@@H]2CC[C@]2(C)[C@@H](c3ccc(=O)oc3)CC[C@]12O", "h", 0.73),
    ("C[C@]12CC[C@H](O)C[C@@]1(O)CC[C@@H]1[C@@H]2CC[C@]2(C)[C@@H](c3ccc(=O)oc3)[C@@H](O)[C@H]3O[C@]132", "h", 2.68),
    ("C[C@]12CC[C@H](O)C[C@H]1CC[C@@H]1[C@@H]2[C@H](O)C(=O)[C@]2(C)[C@@H](c3ccc(=O)oc3)CC[C@]12O", "h", 1.49),
    ("C[C@]12CC[C@H]3[C@@H](CC[C@]4(O)C[C@@H](O)CC[C@]34C=O)[C@@]1(O)CC[C@@H]2c1ccc(=O)oc1", "h", 2.28),
    ("C[C@]12CC[C@H](O)C[C@H]1CC[C@@H]1[C@@H]2CC[C@]2(C)[C@@H](c3ccc(=O)oc3)[C@@H](O)[C@H]3O[C@]132", "h", 3),
]

---

# Lookup of reported Stability during 24 h at 4°C, RE keyed by entry
# protocol_notes: Stability of analytes in rat plasma QC samples under storage conditions
# Type: physicochemical
# experimental_context: post-treatment storage in autosampler; low QC level (4.99–5.00 ng/ml), n = 6

# structure_smiles, Stability during 24 h at 4°C, RE [%]
records = [
    ("CC(=O)O[C@H]1C[C@]2(O)[C@@H]3CC[C@@H]4C[C@@H](O)CC[C@]4(C)[C@H]3CC[C@]2(C)[C@H]1c1ccc(=O)oc1", 11.4),
    ("C[C@]12CC[C@H](O)C[C@@]1(O)CC[C@@H]1[C@@H]2CC[C@]2(C)[C@@H](c3ccc(=O)oc3)[C@@H](O)[C@H]3O[C@]132", 11.4),
    ("CC(=O)O[C@H]1[C@H]2O[C@]23[C@@H]2CC[C@]4(O)C[C@@H](O)CC[C@]4(C)[C@H]2CC[C@]3(C)[C@H]1c1ccc(=O)oc1", 9.8),
    ("C[C@]12CC[C@H]3[C@@H](CC[C@]4(O)C[C@@H](O)CC[C@]34C=O)[C@@]1(O)CC[C@@H]2c1ccc(=O)oc1", 10.2),
    ("C[C@]12CC[C@H](O)C[C@H]1CC[C@@H]1[C@@H]2CC[C@]2(C)[C@@H](c3ccc(=O)oc3)CC[C@]12O", 3.3),
    ("C[C@]12CC[C@H](O)C[C@@]1(O)CC[C@@H]1[C@@H]2CC[C@]2(C)[C@@H](c3ccc(=O)oc3)CC[C@]12O", "−0.3"),
]

---

# protocol_notes: Pharmacokinetic study in rats after intravenous administration of cinobufacini injection (UPLC-MS/MS of plasma)
# Assay type: in vivo, rat
# experimental_context: cinobufacini injection group, intravenous

# compound, detection in rat plasma
data = [
    ("C[C@]12CC[C@H](O)C[C@H]1CC[C@@H]1[C@@H]2CC[C@]2(C)[C@@H](c3ccc(=O)oc3)C[C@H]3O[C@]132 [RBG, resibufogenin]", "could not be detected"),
    ("CC(=O)O[C@H]1[C@H]2O[C@]23[C@@H]2CC[C@]4(O)C[C@@H](O)CC[C@]4(C)[C@H]2CC[C@]3(C)[C@H]1c1ccc(=O)oc1 [CBT, cinobufotalin]", "could not be detected"),
    ("C[C@]12CC[C@H](O)C[C@H]1CC[C@@H]1[C@@H]2C(=O)[C@@H](O)[C@]2(C)[C@@H](c3ccc(=O)oc3)CC[C@]12O [PBG, pseudobufarenogin]", "could be detected"),
    ("C[C@]12CC[C@H](O)C[C@H]1CC[C@@H]1[C@@H]2[C@H](O)C(=O)[C@]2(C)[C@@H](c3ccc(=O)oc3)CC[C@]12O [ABG, arenobufagin]", "could be detected"),
    ("CC(=O)O[C@H]1[C@H]2O[C@]23[C@@H]2CC[C@@H]4C[C@@H](O)CC[C@]4(C)[C@H]2CC[C@]3(C)[C@H]1c1ccc(=O)oc1 [CBG, cinobufagin]", "could not be detected"),
    ("CC(=O)O[C@H]1C[C@]2(O)[C@@H]3CC[C@@H]4C[C@@H](O)CC[C@]4(C)[C@H]3CC[C@]2(C)[C@H]1c1ccc(=O)oc1 [BL, bufotalin]", "could not be detected"),
    ("C[C@]12CC[C@H](O)C[C@H]1CC[C@@H]1[C@@H]2CC[C@]2(C)[C@@H](c3ccc(=O)oc3)CC[C@]12O [BF, bufalin]", "could be detected"),
]

---

# protocol_notes: Pharmacokinetic study in rats after oral administration of cinobufacini capsule (UPLC-MS/MS of plasma)
# Format: in vivo, rat
# experimental_context: male, Sprague-Dawley, in vivo; rat plasma, oral cinobufacini capsule 0.9 g/kg (low), mean ± SD, n = 6
# Lookup of reported AUC(0-inf) keyed by entry
endpoint_name: AUC(0-inf) (ng·h/mL)

# compound, unit_label, meas_value
measured = [
    ("C[C@]12CC[C@H]3[C@@H](CC[C@]4(O)C[C@@H](O)CC[C@]34C=O)[C@@]1(O)CC[C@@H]2c1ccc(=O)oc1 [HBG, hellebrigenin]", "ng·h/mL", 4.21),
    ("C[C@]12CC[C@H](O)C[C@H]1CC[C@@H]1[C@@H]2[C@H](O)C[C@]2(C)[C@@H](c3ccc(=O)oc3)CC[C@]12O [GBL, gamabufotalin]", "ng·h/mL", 13.6),
    ("C[C@]12CC[C@H](O)C[C@H]1CC[C@@H]1[C@@H]2CC[C@]2(C)[C@@H](c3ccc(=O)oc3)CC[C@]12O [BF, bufalin]", "ng·h/mL", 143),
]

---

# protocol_notes: Stability of analytes in rat plasma QC samples under storage conditions
# Assay type: physicochemical
# experimental_context: rat plasma, −80°C to room temperature; high QC level (249.58–250.28 ng/ml), n = 6
endpoint_name: Three freeze–thaw cycles, RE (%)

# structure_smiles, meas_value
rows = [
    ("C[C@]12CC[C@H](O)C[C@H]1CC[C@@H]1[C@@H]2CC[C@]2(C)[C@@H](c3ccc(=O)oc3)[C@@H](O)[C@H]3O[C@]132", "−2.8"),
    ("C[C@]12CC[C@H](O)C[C@@]1(O)CC[C@@H]1[C@@H]2CC[C@]2(C)[C@@H](c3ccc(=O)oc3)CC[C@]12O", -6.6),
    ("CC(=O)O[C@H]1[C@H]2O[C@]23[C@@H]2CC[C@]4(O)C[C@@H](O)CC[C@]4(C)[C@H]2CC[C@]3(C)[C@H]1c1ccc(=O)oc1", 12.0),
]

---

# protocol_notes: Stability of analytes in rat plasma QC samples under storage conditions
# Type: physicochemical
# experimental_context: rat plasma, long-term; medium QC level (49.92–50.06 ng/ml), n = 6
# Procedure: The stability of QC samples in six replicates at three concentrations (low, medium, and high levels) was analyzed under different storage conditions: the post-treatment stability was analyzed after storage in an autosampler (4°C) for 24 h. […] Long-term stability was assessed by analyzing QC samples kept at −80°C for 30 days. The concentrations of the analytes in the plasma samples and the QC samples were calculated by the calibration standard curve prepared each day. […]

# structure_smiles, −80°C for 30 days, RE [%]
measured = [
    ("C[C@]12CC[C@H](O)C[C@H]1CC[C@@H]1[C@@H]2[C@H](O)C(=O)[C@]2(C)[C@@H](c3ccc(=O)oc3)CC[C@]12O", 8.3),
    ("C[C@]12CC[C@H](O)C[C@H]1CC[C@@H]1[C@@H]2C(=O)[C@@H](O)[C@]2(C)[C@@H](c3ccc(=O)oc3)CC[C@]12O", 7.5),
    ("CC(=O)O[C@H]1[C@H]2O[C@]23[C@@H]2CC[C@]4(O)C[C@@H](O)CC[C@]4(C)[C@H]2CC[C@]3(C)[C@H]1c1ccc(=O)oc1", 4.1),
    ("CC(=O)O[C@H]1[C@H]2O[C@]23[C@@H]2CC[C@@H]4C[C@@H](O)CC[C@]4(C)[C@H]2CC[C@]3(C)[C@H]1c1ccc(=O)oc1", "−1.0"),
    ("C[C@]12CC[C@H](O)C[C@@]1(O)CC[C@@H]1[C@@H]2CC[C@]2(C)[C@@H](c3ccc(=O)oc3)[C@@H](O)[C@H]3O[C@]132", 12.7),
    ("C[C@]12CC[C@H](O)C[C@H]1CC[C@@H]1[C@@H]2[C@H](O)C[C@]2(C)[C@@H](c3ccc(=O)oc3)CC[C@]12O", 12.4),
    ("CC(=O)O[C@H]1C[C@]2(O)[C@@H]3CC[C@@H]4C[C@@H](O)CC[C@]4(C)[C@H]3CC[C@]2(C)[C@H]1c1ccc(=O)oc1", 2.1),
]
